test system: PSEUDOMONAS CEPACIA 296I; assay: In vitro antibacterial activity, MIC, BHI agar dilution; format: cell-based; details: P. cepacia 296I, unit assumed
A collection of compounds and their measured MIC

- compound: "CC[C@H]1OC(=O)[C@H](C)C(=O)[C@H](C)[C@@H](O[C@@H]2O[C@H](C)C[C@H](N(C)C)[C@H]2O)[C@](C)(OC)C[C@@H](C)C2=N[C@H](COCc3ccccc3F)CN3C(=O)O[C@@]1(C)[C@H]3[C@H]2C"
  uom: "µg/mL"
  relationSign: "="
  MIC: 50
- compound: "CC[C@H]1OC(=O)[C@H](C)C(=O)[C@H](C)[C@@H](O[C@@H]2O[C@H](C)C[C@H](N(C)C)[C@H]2O)[C@](C)(OC)C[C@@H](C)C2=NC3CN(C(C)c4ccccc4)CC3N3C(=O)O[C@@]1(C)[C@H]3[C@H]2C (stereo partly shown)"
  uom: "µg/mL"
  relationSign: ">"
  MIC: 100
- compound: "CC[C@H]1OC(=O)[C@H](C)C(=O)[C@H](C)[C@@H](O[C@@H]2O[C@H](C)C[C@H](N(C)C)[C@H]2O)[C@](C)(OC)C[C@@H](C)C2=N[C@@H]3COC[C@@H]3N3C(=O)O[C@@]1(C)[C@H]3[C@H]2C"
  uom: "µg/mL"
  relationSign: ">"
  MIC: 100
- compound: "C=CCN1CC2N=C3[C@H](C)C[C@@](C)(OC)[C@H](O[C@@H]4O[C@H](C)C[C@H](N(C)C)[C@H]4O)[C@@H](C)C(=O)[C@@H](C)C(=O)O[C@H](CC)[C@@]4(C)OC(=O)N(C2C1)[C@@H]4[C@H]3C (stereo partly shown)"
  uom: "µg/mL"
  relationSign: ">"
  MIC: 100
- compound: "CC[C@H]1OC(=O)[C@H](C)C(=O)[C@H](C)[C@@H](O[C@@H]2O[C@H](C)C[C@H](N(C)C)[C@H]2O)[C@](C)(OC)C[C@@H](C)C2=NC3CN(CCc4ccc(N)cc4)CC3N3C(=O)O[C@@]1(C)[C@H]3[C@H]2C (stereo partly shown)"
  uom: "µg/mL"
  relationSign: "="
  MIC: 100
- compound: "CC[C@H]1OC(=O)[C@H](C)C(=O)[C@H](C)[C@@H](O[C@@H]2O[C@H](C)C[C@H](N(C)C)[C@H]2O)[C@](C)(OC)C[C@@H](C)C2=N[C@H](COCc3cc(C)c4ccccc4n3)CN3C(=O)O[C@@]1(C)[C@H]3[C@H]2C"
  uom: "µg/mL"
  relationSign: "="
  MIC: 50
- compound: "CC[C@H]1OC(=O)[C@H](C)C(=O)[C@H](C)[C@@H](O[C@@H]2O[C@H](C)C[C@H](N(C)C)[C@H]2O)[C@](C)(OC)C[C@@H](C)C2=N[C@H](COCc3ccccc3Br)CN3C(=O)O[C@@]1(C)[C@H]3[C@H]2C"
  uom: "µg/mL"
  relationSign: "="
  MIC: 100
- compound: "CC[C@H]1OC(=O)[C@H](C)C[C@H](C)[C@@H](O[C@@H]2O[C@H](C)C[C@H](N(C)C)[C@H]2O)[C@](C)(OC)C[C@@H](C)C2=NCCN3C(=O)O[C@@]1(C)[C@H]3[C@H]2C"
  uom: "µg/mL"
  relationSign: "="
  MIC: 12.5
- compound: "CC[C@H]1OC(=O)[C@H](C)C(=O)[C@H](C)[C@@H](O[C@@H]2O[C@H](C)C[C@H](N(C)C)[C@H]2O)[C@](C)(OC)C[C@@H](C)C2=NC[C@H](COCc3ccccc3)N3C(=O)O[C@@]1(C)[C@H]3[C@H]2C"
  uom: "µg/mL"
  relationSign: "="
  MIC: 12.5
- compound: "CC[C@H]1OC(=O)[C@H](C)C(=O)[C@H](C)[C@@H](O[C@@H]2O[C@H](C)C[C@H](N(C)C)[C@H]2O)[C@](C)(OC)C[C@@H](C)C2=NC[C@@H](C)N3C(=O)O[C@@]1(C)[C@H]3[C@H]2C"
  uom: "µg/mL"
  relationSign: ">"
  MIC: 100
- compound: "CC[C@H]1OC(=O)[C@H](C)C(=O)[C@H](C)[C@@H](O[C@@H]2O[C@H](C)C[C@H](N(C)C)[C@H]2O)[C@](C)(OC)C[C@@H](C)C2=NC3CN(CC(OC)OC)CC3N3C(=O)O[C@@]1(C)[C@H]3[C@H]2C (stereo partly shown)"
  uom: "µg/mL"
  relationSign: ">"
  MIC: 100
- compound: "CC[C@H]1OC(=O)[C@H](C)C(=O)[C@H](C)[C@@H](O[C@@H]2O[C@H](C)C[C@H](N(C)C)[C@H]2O)[C@](C)(OC)C[C@@H](C)C2=N[C@@H]3CNC[C@@H]3N3C(=O)O[C@@]1(C)[C@H]3[C@H]2C"
  uom: "µg/mL"
  relationSign: ">"
  MIC: 100
- compound: "CC[C@H]1OC(=O)[C@H](C)C(=O)[C@H](C)[C@@H](O[C@@H]2O[C@H](C)C[C@H](N(C)C)[C@H]2O)[C@](C)(OC)C[C@@H](C)C2=NC3CCCCC3N3C(=O)O[C@@]1(C)[C@H]3[C@H]2C (stereo partly shown)"
  uom: "µg/mL"
  relationSign: "="
  MIC: 100
- compound: "CC[C@H]1OC(=O)[C@H](C)C(=O)[C@H](C)[C@@H](O[C@@H]2O[C@H](C)C[C@H](N(C)C)[C@H]2O)[C@](C)(OC)C[C@@H](C)C2=NC3CN(CCOC)CC3N3C(=O)O[C@@]1(C)[C@H]3[C@H]2C (stereo partly shown)"
  uom: "µg/mL"
  relationSign: ">"
  MIC: 100
- compound: "CC[C@H]1OC(=O)[C@H](C)C(=O)[C@H](C)[C@@H](O[C@@H]2O[C@H](C)C[C@H](N(C)C)[C@H]2O)[C@](C)(OC)C[C@@H](C)C2=NCC(CNCc3ccccc3)N3C(=O)O[C@@]1(C)[C@H]3[C@H]2C (stereo partly shown)"
  uom: "µg/mL"
  relationSign: "="
  MIC: 25
- compound: "CC[C@H]1OC(=O)[C@H](C)C(=O)[C@H](C)[C@@H](O[C@@H]2O[C@H](C)C[C@H](N(C)C)[C@H]2O)[C@](C)(OC)C[C@@H](C)C2=NC3CN(S(=O)(=O)Cc4ccccc4[N+](=O)[O-])CC3N3C(=O)O[C@@]1(C)[C@H]3[C@H]2C (stereo partly shown)"
  uom: "µg/mL"
  relationSign: ">"
  MIC: 100
